- System: binding sites on human melanoma M24met cells
- Protocol Description: binding of CN to human melanoma M24met cells, high affinity site
Readout Kind: Kd (nM)

Binder	Recorded Value
contortrostatin (ligand, also called CN; homodimeric disintegrin) DAPANPCCDAATCKLTTGSQCADGLCCDQCKFMKEGTVCRRARGDDLDDYCNGISAGCPRNPFHA	1.1
